Listing: melting point of selected molecules

{"molecule": "Cc1ccccc1C(=O)N1CCN(c2nn(C)c(=O)n(C)c2=O)CC1 [Example 43]", "melting point [°C]": 60}
{"molecule": "Cn1nc(N2CCC(Oc3ccccc3C(F)(F)F)C2)c(=O)n(C)c1=O (centres unmarked) [Example 37]", "melting point [°C]": 84}
{"molecule": "Cn1c(=O)[nH]nc(N2CCN(Cc3ccccc3C(F)(F)F)CC2)c1=O [Example 64]", "melting point [°C]": 205}
{"molecule": "Cn1nc(N2CCN(C(=O)c3ccccc3Br)CC2)c(=O)n(C)c1=O [Example 45]", "melting point [°C]": 119}
{"molecule": "Cn1c(=O)c(N2CCC(Oc3ccccc3C(F)(F)F)CC2)nn(-c2ccsc2)c1=O [Example 82]", "melting point [°C]": 85}
{"molecule": "Cn1c(=O)[nH]nc(N2CCC(Oc3ccccc3C(F)(F)F)CC2)c1=O [Example 85]", "melting point [°C]": 150}
{"molecule": "Cn1nc(N2CCN(C(=O)c3ccc(F)cc3C(F)(F)F)CC2)c(=O)n(C)c1=O [Example 41]", "melting point [°C]": 128}
{"molecule": "COc1ccccc1-n1nc(N2CCC(Oc3ccccc3C(F)(F)F)CC2)c(=O)n(C)c1=O [Example 84]", "melting point [°C]": 128}
{"molecule": "Cn1c(=O)[nH]nc(N2CCN(C(=O)c3ccccc3C(F)(F)F)CC2)c1=O [Example 4]", "melting point [°C]": 235}
{"molecule": "CCCCCCCn1c(=O)[nH]nc(N2CCC(Oc3ccccc3Cl)CC2)c1=O [Example 76]", "melting point [°C]": 95}
{"molecule": "Cn1nc(N2CCN(C(=O)c3ccccc3)CC2)c(=O)n(C)c1=O [Example 46]", "melting point [°C]": 132}
{"molecule": "Cn1nc(N2CCN(C(=O)c3cc(F)ccc3C(F)(F)F)CC2)c(=O)n(C)c1=O [Example 42]", "melting point [°C]": 87}
{"molecule": "Cn1nc(N2CCC(Oc3ccccc3)C2)c(=O)n(C)c1=O (centres unmarked) [Example 38]", "melting point [°C]": 80}
{"molecule": "CC(C)C(C(=O)N1CCN(c2nn(C)c(=O)n(C)c2=O)CC1)c1ccc(Cl)cc1 (centres unmarked) [Example 49]", "melting point [°C]": 58}
{"molecule": "Cn1nc(N2CCN(C(=O)c3cccc(C(F)(F)F)c3)CC2)c(=O)n(C)c1=O [Example 44]", "melting point [°C]": 92}
{"molecule": "Cn1nc(N2CCN(C(=O)Oc3cccc(C(F)(F)F)c3)CC2)c(=O)n(C)c1=O [Example 51]", "melting point [°C]": 93}
{"molecule": "Cn1nc(N2CCC(Oc3cc(F)ccc3Cl)CC2)c(=O)n(C)c1=O [Example 30]", "melting point [°C]": 168}
{"molecule": "Cc1ccccc1-n1nc(N2CCC(Oc3ccccc3C(F)(F)F)CC2)c(=O)n(C)c1=O [Example 79]", "melting point [°C]": 106}
{"molecule": "Cn1c(=O)c(N2CCC(Oc3ccccc3C(F)(F)F)CC2)nn(CCO)c1=O [Example 89]", "melting point [°C]": 112}
{"molecule": "O=c1[nH]nc(N2CCC(Oc3ccccc3C(F)(F)F)CC2)c(=O)n1CCCC(F)(F)F [Example 72]", "melting point [°C]": 102}
{"molecule": "Cn1nc(N2CCC(Oc3cc(C(F)(F)F)ccc3Cl)CC2)c(=O)n(C)c1=O [Example 29]", "melting point [°C]": 160}
{"molecule": "COc1ccccc1OC1CCN(c2nn(C)c(=O)n(C)c2=O)CC1 [Example 34]", "melting point [°C]": 78}
{"molecule": "Cn1nc(N2CCN(C(=O)c3ccccc3C(F)(F)F)CC2)c(=O)n(C)c1=O [Example 5]", "melting point [°C]": 76}
{"molecule": "Cn1nc(N2CCN(C(=O)c3ccccc3C(F)(F)F)C(=O)C2)c(=O)n(C)c1=O [Example 53]", "melting point [°C]": 90}
{"molecule": "Cn1nc(N2CCC(Cc3cc(C(F)(F)F)ccc3F)CC2)c(=O)n(C)c1=O [Example 39]", "melting point [°C]": 116}
{"molecule": "Cn1nc(N2CCN(C(=O)c3cc(C(F)(F)F)ccc3C(F)(F)F)CC2)c(=O)n(C)c1=O [Example 40]", "melting point [°C]": 90}
{"molecule": "Cn1cc(N2CCN(Cc3ccccc3)CC2)c(=O)n(C)c1=O", "melting point [°C]": 162}
{"molecule": "O=C(c1ccccc1C(F)(F)F)N1CCN(c2c[nH]c(=O)[nH]c2=O)CC1 [Example 6]", "melting point [°C]": 285}
{"molecule": "Cn1c(=O)c(N2CCC(Oc3ccccc3C(F)(F)F)CC2)nn(-c2cccnc2)c1=O [Example 81]", "melting point [°C]": 63}
{"molecule": "Cn1c(=O)c(N2CCC(Oc3ccccc3C(F)(F)F)CC2)nn(-c2ccc(C#N)cc2)c1=O [Example 83]", "melting point [°C]": 72}
{"molecule": "Cn1nc(N2CCC(C(=O)c3ccc(F)cc3)CC2)c(=O)n(C)c1=O [Example 36]", "melting point [°C]": 129}
{"molecule": "Cn1cc(N2CCN(C(=O)c3ccccc3C(F)(F)F)CC2)c(=O)n(C)c1=O [Example 62]", "melting point [°C]": 163}
{"molecule": "CCOCCOCCn1nc(N2CCC(Oc3ccccc3C(F)(F)F)CC2)c(=O)n(C)c1=O [Example 88]", "melting point [°C]": 44}
{"molecule": "Cn1nc(N2CCC(Oc3ccc(F)cc3)CC2)c(=O)n(C)c1=O [Example 33]", "melting point [°C]": 70}
{"molecule": "Cc1ccccc1OC1CCN(c2nn(C)c(=O)n(C)c2=O)CC1 [Example 31]", "melting point [°C]": 102}
